- Test system: recombinant human HDACs
- TEST: HDAC enzymatic assay (LabChip capillary electrophoresis)
- Type: biochemical
- EXPERIMENTAL_CONTEXT: 5 nM HDAC enzyme, 1 uM substrate, 5 hours pre-incubation, 17 hours reaction at 25°C; isoform not given
pIC50: −log10 of the molar value.
QUANTITY_MEASURED: pIC50

> print(dat)
                                   compound  quantity.measured     obs.value
1      CN1CCN(C(=O)Nc2nn(-c3ccccc3)cc2N)CC1              pIC50        < 5.30
2  Nc1ccc(-c2ccc(F)cc2)nc1NC(=O)N1Cc2cccc(N3CCCC3)c2C1              pIC50        < 5.30
3       Cc1cnc(C(=O)Nc2nn(-c3ccccc3)cc2N)s1              pIC50  5.30 to 6.30
4  CN(C)Cc1ccc2c(c1)CN(C(=O)Nc1nc(-c3cccs3)ccc1N)C2              pIC50  6.30 to 7.00
5    CN1CC(C(=O)Nc2nc(-c3ccc(F)cc3)ccc2N)C1              pIC50        < 5.30

Then this compound:
Lookup result for CN1CC(CN2CC3CN(C(=O)Nc4nc(-c5ccc(F)cc5)ccc4N)CC3C2)C1 (centres unmarked) ; measured pIC50: 5.30 to 6.30
